target: Cytochrome P450 2D6 (Homo sapiens) (UniProt P10635); assay: Cytochrome P450 family 2 subfamily D member 6 (CYP2D6) small molecule antagonists: luciferase biochemical (cell-free) qHTS assay (AID 1645840); settings: P450-Glo CYP2D6 enzyme, luciferin luminescence, 1 h; series mostly up to 57.4 µM; further: nearly all actives have a fitted effect of over 55% in size
Sequence (P10635 whole entry, looked up): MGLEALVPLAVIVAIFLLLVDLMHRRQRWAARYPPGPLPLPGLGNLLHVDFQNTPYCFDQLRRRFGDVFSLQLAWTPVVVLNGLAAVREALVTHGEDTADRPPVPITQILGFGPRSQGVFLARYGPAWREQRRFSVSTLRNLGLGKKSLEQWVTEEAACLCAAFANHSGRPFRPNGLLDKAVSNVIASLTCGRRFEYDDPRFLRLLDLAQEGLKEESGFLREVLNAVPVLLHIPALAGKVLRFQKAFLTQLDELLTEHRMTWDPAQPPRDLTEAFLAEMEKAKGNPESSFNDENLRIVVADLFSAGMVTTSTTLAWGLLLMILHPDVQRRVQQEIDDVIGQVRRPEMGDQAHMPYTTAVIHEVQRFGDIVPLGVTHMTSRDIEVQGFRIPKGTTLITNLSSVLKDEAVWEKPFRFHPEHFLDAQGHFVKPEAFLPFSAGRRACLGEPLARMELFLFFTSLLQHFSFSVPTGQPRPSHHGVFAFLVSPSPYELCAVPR
Results filed as inconclusive are left out. Activity calls are given as the source filed them. The call rests on the fitted dose curve; in most records, active means well fitted inhibition curve with a large enough effect in the repeat runs; inconclusive means weak or mixed curves; inactive means flat fitted curve, though single readings scatter.
Outcome field: choose from t = active, f = inactive

Please review the entries below; each comes with its answer.
| SMILES REPRESENTATION | CLASSIFICATION |
| --- | --- |
| Clc1ccc(C2(c3ccc(-c4cn[nH]c4)cc3)CCNCC2)cc1 | t |
| CC[C@H](CC#N)OC(=O)N[C@@H](C)c1cccc(NC(=O)Nc2ccc(-c3cnco3)c(OC)c2)c1 | t |
| CNC(=O)c1c(-c2ccc(F)cc2)oc2cc(N(CCO)S(C)(=O)=O)c(C3CC3)cc12 | f |

## Task Which outcome did this test record for the compound "COc1cc(Nc2nc3ccccc3nc2NS(=O)(=O)c2ccc(NC(=O)c3ccc(C)c(OC)c3)cc2)cc(OC)c1" ?
## Result f

## Task Short answer needed: outcome of this test for "CC[C@H](C)C(=O)O[C@H]1C[C@H](O)C=C2C=C[C@H](C)[C@H](CC[C@@H](O)C[C@@H](O)CC(=O)O)[C@H]21" ?
## Result f

## Task Query: recorded result category for "O=C(Nc1cccc(C(F)(F)F)c1)Nc1cc(S(=O)(=O)NC2CC2)ccc1-c1ccsc1" in this test
## Result t

## Task Status in this test for "CC(C)(C)c1nc(-c2cccc(NS(=O)(=O)c3c(F)cccc3F)c2F)c(-c2ccnc(N)n2)s1" ?
## Result f

###

assay: qHTS of pediatric cancer cell lines to identify multiple opportunities for drug repurposing: Primary screen for SJ-GBM2 cells (AID 1347091); conditions: SJ-GBM2 viability, CellTiter-Glo luminescence, 48 h; series mostly up to 46 µM
Records with an inconclusive call do not appear. The source made the active and inactive calls. Calls follow the shape of the dose curve; as a rule, active = well fitted cell-killing curve with a large enough effect; inconclusive = small, poorly fitted or top-dose-only effect; inactive = no such curve, though single readings can be large or run the other way.
Give one outcome, nothing more. List: yes (active), no (inactive)

Sample answers from the record:
| COMPOUND | CLASSIFICATION |
| --- | --- |
| COc1ccc(-c2ccc3ncc4c(c3c2)n(-c2ccc(N3CCNCC3)c(C(F)(F)F)c2)c(=O)n4C)cn1 | yes |
| CC1(C)CC(=O)c2c(C(F)(F)F)nn(-c3ccc(C(N)=O)c(NC4CCC(O)CC4)c3)c2C1 (stereo not given) | yes |
| C[C@]12CCC3=C4CCC(=O)C=C4CC[C@@H]3[C@H]1CC[C@@]2(O)CC#N | no |
| O=C(c1ccc(F)c(F)c1Nc1ccc(I)cc1F)N1CC(O)([C@H]2CCCCN2)C1 | yes |

## Task Give the logged outcome of this assay for the following compound: COc1ccnc(CS(=O)c2nc3ccc(OC(F)F)cc3[nH]2)c1OC (stereo not given)
## Result no

###

system: Zika virus NS2B-NS3 protease (unlinked complex); assay: Primary screen GU Rhodamine qHTS for Zika virus inhibitors: Unlinked NS2B-NS3 protease assay (AID 1347159); conditions: Recombinant ZIKV NS2B-NS3 protease, Rhodamine110 substrate fluorescence; series mostly up to 107 µM; further: nearly all actives have a fitted effect of over 60% in size
Results filed as inconclusive are left out. The source made the active and inactive calls. The call rests on the fitted dose curve; in most records, active means well fitted inhibition curve with a large enough effect; inconclusive means small, poorly fitted or top-dose-only effect; inactive means no such curve, though single readings can be large or run the other way.
Output constraint: value belongs to yes for active, no for inactive

Would you please look over these solved cases?
| SMILES REPRESENTATION | CLASSIFICATION |
| --- | --- |
| CC(C)CNc1ccnc(NCc2csc(-c3ccccc3)n2)n1 | no |
| Cc1nc(C(=O)NCC(=O)O)c(O)c2ccc(Oc3ccccc3)cc12 | yes |
| O=C(CO)N1CCC(c2[nH]nc(-c3ccc(Cl)cc3)c2-c2ccncn2)CC1 | no |

## Task What outcome does the record of this test show for "CC(C)(C)c1nc(-c2cccc(NS(=O)(=O)c3c(F)cccc3F)c2F)c(-c2ccnc(N)n2)s1" ?
## Result yes

## Task Answer briefly: the call reported for "c1cc(OCCN2CCCCC2)cc(-c2n[nH]c3ccc(-c4ncn[nH]4)cc23)c1" in this assay.
## Result no
